target: Organic cation/carnitine transporter 2 (Homo sapiens, UniProt O76082); assay: TP_TRANSPORTER: inhibition of carnitine transport by Carnitine-related compound-9A at 20uM in Xenopus laevis oocytes; type: functional, cell-based, Oocyte; parameters: scale not given: the % may be the effect or the level left; details: probe carnitine, read-out: Activity
Sequence (O76082 whole entry): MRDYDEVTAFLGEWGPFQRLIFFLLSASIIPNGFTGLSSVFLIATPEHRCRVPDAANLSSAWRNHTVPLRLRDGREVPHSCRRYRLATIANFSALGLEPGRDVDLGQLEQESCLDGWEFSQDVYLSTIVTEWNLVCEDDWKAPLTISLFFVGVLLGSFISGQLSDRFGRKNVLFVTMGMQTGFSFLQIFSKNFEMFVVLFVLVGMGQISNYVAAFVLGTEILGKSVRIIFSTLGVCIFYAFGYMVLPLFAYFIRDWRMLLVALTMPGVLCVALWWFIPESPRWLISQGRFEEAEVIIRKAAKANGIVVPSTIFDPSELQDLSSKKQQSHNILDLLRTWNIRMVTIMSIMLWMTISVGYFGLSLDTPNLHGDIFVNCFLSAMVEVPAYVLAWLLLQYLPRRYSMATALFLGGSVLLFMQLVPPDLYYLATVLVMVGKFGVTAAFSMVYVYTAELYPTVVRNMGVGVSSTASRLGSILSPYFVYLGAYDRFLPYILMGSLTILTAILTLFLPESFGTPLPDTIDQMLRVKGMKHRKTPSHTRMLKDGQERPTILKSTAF
recorded.metric: activity at 20 µM (%)
Quick reminder: number only, in %, skip the unit.

Record CC[N+](CC)(CC)CCCCCC(=O)O / Organic cation/carnitine transporter 2 (Homo sapiens, UniProt O76082), activity at 20 µM recorded as 30

###

molecular target: Solute carrier family 22 member 16 (Homo sapiens, UniProt Q86VW1); assay: TP_TRANSPORTER: inhibition of carnitine transport by Acetyl-L-carnitine at 5uM in Xenopus laevis oocytes; type: functional, cell-based, Oocyte; parameters: scale not given: the % may be the effect or the level left; settings: probe carnitine, read-out: Activity
Sequence (Q86VW1 whole entry): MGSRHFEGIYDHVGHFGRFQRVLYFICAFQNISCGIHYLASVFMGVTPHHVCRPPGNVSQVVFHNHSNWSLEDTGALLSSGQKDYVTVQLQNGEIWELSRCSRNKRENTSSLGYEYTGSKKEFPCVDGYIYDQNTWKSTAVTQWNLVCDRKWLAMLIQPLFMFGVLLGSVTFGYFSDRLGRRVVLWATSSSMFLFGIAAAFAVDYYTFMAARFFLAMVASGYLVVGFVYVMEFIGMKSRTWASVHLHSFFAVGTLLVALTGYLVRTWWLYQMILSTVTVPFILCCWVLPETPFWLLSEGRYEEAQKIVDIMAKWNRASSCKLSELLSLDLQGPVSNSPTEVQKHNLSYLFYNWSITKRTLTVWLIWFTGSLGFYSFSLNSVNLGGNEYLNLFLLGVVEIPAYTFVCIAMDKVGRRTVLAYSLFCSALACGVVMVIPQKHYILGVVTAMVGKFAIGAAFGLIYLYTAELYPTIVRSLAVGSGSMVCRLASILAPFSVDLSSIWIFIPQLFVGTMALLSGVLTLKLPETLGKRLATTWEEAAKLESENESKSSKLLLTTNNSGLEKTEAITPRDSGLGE
recorded.metric: activity at 5 µM (%)
Quick reminder: number only, in %, skip the unit.

Record CC(=O)O[C@H](CC(=O)[O-])C[N+](C)(C)C / Solute carrier family 22 member 16 (Homo sapiens, UniProt Q86VW1), activity at 5 µM recorded as 70

The values you see were collected from ChEMBL document CHEMBL2073861.
